Target: T1, AbrB from B. subtilis 168, full-length, His6-tagged (B. subtilis 168, UniProt P08874 1-96)
T1 sequence (looked up): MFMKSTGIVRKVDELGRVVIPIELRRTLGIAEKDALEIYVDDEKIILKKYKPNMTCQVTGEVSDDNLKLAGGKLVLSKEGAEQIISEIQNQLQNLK
Assay: SPR
measurementType: pKd
Remember, pKd is on a log scale: it is -log10 of the molar concentration.

Tell me the measured pKd of AbrB antirepressor AbbA from B. subtilis 168, His6-tagged (natural protein, UniProt O31697 1-65, looked up) MRMSLIGERFTEEEQKLLLNILINHEYAIELLSSEINDIETGTKNVDGTTYKKLVTLYDRFRFEN , please. 6.35
